These data points were gathered from ChEMBL document CHEMBL5303304.

System: Fibroblast
Test: Incucyte cell viability with human fibroblast; also: unitless GR value; below 1 slowed growth and below 0 cell loss
Type: toxicity, cell-based
Settings: 18 h, 10 µM, compound concentration 10 uM, replicate number 2
Attribute: Growth Rate

compound	Growth Rate
O=C(O)CCC/C=C\C[C@@H]1[C@@H](/C=C/[C@@H](O)COc2cccc(C(F)(F)F)c2)[C@H](O)C[C@@H]1O	0.18
Cc1cc(CN)cc(C)c1-c1ncn(C)c1-c1ccnc2cc(F)ccc12.Cl	0.81
COc1ccccc1S(=O)(=O)Nc1ccc2c(c1)CN(C)C(=O)N2	0.7
CC/C(=C(\c1ccc(O)cc1)c1ccc(OCCN(C)C)cc1)c1ccccc1	0.13
COc1ccc(-c2csc(NC(=O)[C@H]3CCCCN3S(=O)(=O)c3ccc(C)cc3)n2)cc1	0.57
O=S(=O)(Nc1ccc(C(O)(C(F)(F)F)C(F)(F)F)cc1)c1cccs1	0.93
C[C@H](CCC(=O)O)[C@H]1CC[C@H]2[C@@H]3[C@H](O)C[C@@H]4C[C@H](O)CC[C@]4(C)[C@H]3C[C@H](O)[C@]12C	0.65
CCNC1=N[C@@H]2[C@@H](O)[C@H](O)[C@@H](CO)O[C@@H]2S1	0.8
CNC(=O)c1cccc(-c2ccc3c(N4CCOC[C@@H]4C)nc(N4CCOC[C@@H]4C)nc3n2)c1	0.18

----------
System: HEK-293T
Test: Incucyte cell viability with HEK293T; also: unitless GR value; below 1 slowed growth and below 0 cell loss
Format: toxicity, cell-based
Conditions: human, 18 h, 10 µM, compound concentration 10 uM, replicate number 2
Classify on Growth Rate using low: < 0.5; intermediate: ≥ 0.5 and < 0.8; high: ≥ 0.8

compound	class label
CCOc1ccccc1C(=O)NCC1(N2CCN(CC)CC2)CCCCC1	low
C[C@H](CCOc1cccc(CC(=O)O)c1)N(Cc1cccc(C(F)(F)F)c1Cl)CC(c1ccccc1)c1ccccc1.Cl	high
CC(C)c1nc2c(c3c1[C@@H](c1ccc(C(F)(F)F)cc1)OC31CCOCC1)[C@@H](O)CC(C)(C)C2.Cl	high
Nc1ncnc2c1c(I)cn2[C@@H]1O[C@H](CO)[C@@H](O)[C@H]1O	low
CC(=O)N1CCN(c2ccc(OCC3COC(Cn4ccnc4)(c4ccc(Cl)cc4Cl)O3)cc2)CC1 (stereo not drawn)	low
C=C(F)C(=O)N1CCN(c2nc(OC[C@@H]3CCCN3C)nc3c2CCN(c2cccc4cccc(Cl)c24)C3)C[C@@H]1CC#N	low
CC1(C)C(=O)N([C@H]2CCc3c(O)cccc32)c2nc(Nc3cccc(CN4CCCC4)c3)ncc21	low
CC(=O)N1CCN([C@H]2CCC[C@@H](NC(=O)c3cc4c(F)ccc(C)c4[nH]3)C2)CC1.O=C(O)C(F)(F)F	intermediate
CCOC(=O)c1ccc(N2C(=O)C(O)=C(C(=O)c3ccc(OC)cc3)C2c2ccc(F)cc2)cc1 (stereo not drawn)	high
CNc1nc(Nc2ccc(C(=O)N3CCOCC3)cc2OC)ncc1Cl	high
COc1ccc(CC(=O)NC(N/C(=N/C#N)Nc2cccc3ncccc23)C(C)(C)C)cc1OC (stereo not drawn)	high
CCO[C@@H](Cc1ccc(OCCc2ccc(OS(C)(=O)=O)cc2)cc1)C(=O)O	high
Cl.Cl.c1ccc2c(-c3cnn4cc(-c5ccc(N6CCNCC6)cc5)cnc34)ccnc2c1	low
Nc1ccc(-c2cnc(N)c(-c3ccc(Cl)cc3)c2)cn1	high
CC[C@H](Nc1c(C#N)c(-c2ccc(-c3cccc(C)c3F)cc2)nc2cnccc12)C(=O)O	high
C=C1/C(=C\C=C2/CCC[C@]3(C)[C@@H]([C@H](C)CCCC(C)(C)O)CC[C@@H]23)C[C@@H](O)C[C@@H]1O	intermediate
CN1CCN(c2ccnc(NCCc3ccccc3)n2)CC1 [TP-040n]	low
CC(=O)Nc1nc(C)c(S(=O)(=O)Nc2ccc(C(O)(C(F)(F)F)C(F)(F)F)cc2)s1	high
COc1ccc(COc2ccc(Cc3cnc(N)nc3N)cc2OC)cc1 [GW632580X]	high
Cc1ccc(NC(=O)c2ccc3c(c2)OCCO3)cc1NC(=O)c1ccc2nc(OCCN3CCCC3)ccc2c1	low
COc1ccc(F)c(F)c1C(=O)c1cnc(NC2CCN(S(C)(=O)=O)CC2)nc1N	low
O=C(O)Cc1cc(I)c(Oc2ccc(O)c(I)c2)c(I)c1	intermediate
CCCCC/C=C/C=C1/C(=O)C=C[C@@H]1C/C=C\CCCC(=O)O	high
C[C@H](c1ccnc(Nc2nc3ccc(-c4cc(N(C)C)ncn4)cc3[nH]2)c1)N1CCN(C(=O)CC(F)(F)F)CC1	high
COc1cc(-c2cc([C@H](O)C3CC3)n3ncnc(N)c23)ccc1CO	intermediate
CO[C@H]1C[C@@H]2CC[C@@H](C)[C@@](O)(O2)C(=O)C(=O)N2CCCC[C@H]2C(=O)O[C@H]([C@H](C)C[C@@H]2CC[C@@H](O)[C@H](OC)C2)CC(=O)[C@H](C)/C=C(\C)[C@@H](O)[C@@H](OC)C(=O)[C@H](C)C[C@H](C)/C=C/C=C/C=C/1C	low
CC[C@@H](Nc1c(C#N)c(-c2ccc(-c3cccc(C)c3F)cc2)nc2cnccc12)C(=O)O	high
Cn1nc(-c2ccc(C(N)=O)cc2)c2ccccc2c1=O	intermediate
CCN(CC)C(=O)C1CN2CCc3cc(OC)c(OC)cc3C2CC1OC(C)=O (stereo not drawn) [BENZQUINAMIDE]	intermediate
